assay: physchem
Measurement Kind: pKa
Enter a number only.

Ask: Dear colleague, I am looking for the recorded pKa of the following molecule: O=[N+]([O-])c1ccc(O)cc1
Reply: 7.01
